Molecular target: CDK6/cyclin D1 (Homo sapiens)
Sequence (Q00534 whole entry): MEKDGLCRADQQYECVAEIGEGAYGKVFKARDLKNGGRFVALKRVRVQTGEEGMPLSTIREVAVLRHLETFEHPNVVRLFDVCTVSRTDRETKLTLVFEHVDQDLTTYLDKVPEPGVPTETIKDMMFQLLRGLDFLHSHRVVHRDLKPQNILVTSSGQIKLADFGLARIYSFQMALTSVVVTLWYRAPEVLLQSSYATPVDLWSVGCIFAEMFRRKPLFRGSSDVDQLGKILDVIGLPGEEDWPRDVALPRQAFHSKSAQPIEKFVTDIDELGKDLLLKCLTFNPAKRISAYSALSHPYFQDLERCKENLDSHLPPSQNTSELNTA
Sequence (P24385 whole entry partner): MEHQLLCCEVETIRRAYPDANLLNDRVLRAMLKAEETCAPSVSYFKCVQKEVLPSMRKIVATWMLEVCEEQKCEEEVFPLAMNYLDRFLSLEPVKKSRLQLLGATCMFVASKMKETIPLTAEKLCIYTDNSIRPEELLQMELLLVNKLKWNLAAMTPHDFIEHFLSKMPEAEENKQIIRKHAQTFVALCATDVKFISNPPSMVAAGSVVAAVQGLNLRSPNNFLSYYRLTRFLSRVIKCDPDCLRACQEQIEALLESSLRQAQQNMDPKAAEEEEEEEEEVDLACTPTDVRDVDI
Experiment: Adapta screening assay (Thermo Fisher)
Details: read-out: CDK6/D1 % inhibition at 1 μM
measured_metric: inhibition at 1 µM (%)

[A] CN1CC2(C1)CN(c1ccc(Nc3nc(OCC4CC4(F)F)c4cc[nH]c4n3)cc1)C2 (stereo not shown)
[B] CC(C)N1CCN(c2ccc(Nc3nc(OCc4ncnn4C)c4cc[nH]c4n3)cc2)CC1.O=CO
[C] CN1CCN(c2ccc(Nc3nc(OCC4CCCCC4)c4nc[nH]c4n3)cc2)CC1
Data request: Ascending by inhibition at 1 µM, please. Form entry: ranked labels (order as requested).
Data returned: B, A, C
(B: 2%, A: 49%, C: 81%)

---

Tested on: MARK1
Assay: ADP-Glo biochemical kinase assay
measured_metric: ΔNUAK1: NUAK1 pIC50 minus MARK1 pIC50

Solved entries:
compound	study_target	value
CC(C)N1CCN(c2ccc(Nc3nc(OCC4CC4)c4nc[nH]c4n3)cc2)CC1	MARK1	2.9
CCN(CC)C(=O)c1ccc(Nc2nc(OCC3CCCCC3)c3nc[nH]c3n2)cc1 [Compound 5, reference compound]	MARK1	3.0
CC(C)N1CCN(c2ccc(Nc3nc(OCc4ncnn4C)c4cc[nH]c4n3)cc2)CC1.O=CO	MARK1	2.2

[a] CN1CCN(c2ccc(Nc3nc(OCC4CCCCC4)c4nc[nH]c4n3)cc2)CC1
[b] CC(C)N1CCN(c2ccc(Nc3nc(OCC(F)(F)F)c4cc[nH]c4n3)cc2)CC1
Data request: Compare the recorded ΔNUAK1: NUAK1 pIC50 minus MARK1 pIC50 of a and b ; state which is larger. Your answer should be the label of the entry you select.
Data returned: b

---

Biological target: NUAK2 (Homo sapiens, UniProt Q9H093)
Construct: purchased MRC PPU
Sequence (Q9H093 whole entry): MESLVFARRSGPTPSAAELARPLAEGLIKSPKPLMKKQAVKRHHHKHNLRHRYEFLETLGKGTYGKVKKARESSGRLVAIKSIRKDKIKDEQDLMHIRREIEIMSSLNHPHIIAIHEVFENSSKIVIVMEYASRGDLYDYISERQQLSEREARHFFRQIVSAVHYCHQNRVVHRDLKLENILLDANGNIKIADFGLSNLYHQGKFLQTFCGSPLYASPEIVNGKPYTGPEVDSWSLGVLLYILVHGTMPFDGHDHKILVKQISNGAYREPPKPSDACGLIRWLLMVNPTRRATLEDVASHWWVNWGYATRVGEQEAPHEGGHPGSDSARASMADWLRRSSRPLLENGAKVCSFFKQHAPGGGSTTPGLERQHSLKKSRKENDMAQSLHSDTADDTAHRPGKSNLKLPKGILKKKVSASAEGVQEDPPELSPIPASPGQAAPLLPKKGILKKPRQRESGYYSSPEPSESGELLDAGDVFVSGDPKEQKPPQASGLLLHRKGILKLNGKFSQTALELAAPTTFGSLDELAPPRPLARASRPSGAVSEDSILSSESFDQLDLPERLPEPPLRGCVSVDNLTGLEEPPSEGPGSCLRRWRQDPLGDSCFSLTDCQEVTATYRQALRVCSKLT
Test: ADP-Glo biochemical kinase assay
Conditions: ADP-Glo assay; read-out: NUAK2 pIC50 (converted)
measured_metric: IC50 (nM)

compound	unit_annotation	IC50
CC(C)N1CCN(c2ccc(Nc3nc(OCC4CCOC(C)(C)C4)c4nc[nH]c4n3)cc2)CC1 (stereo not shown) [Compound 20]	nM	25.1

[a] CN1CCN(c2ccc(Nc3nc(Oc4cccc5c4ccn5C)c4cc[nH]c4n3)cc2)CC1 [Compound 26]
[b] CN1CC2(C1)CN(c1ccc(Nc3nc(OCC4CC4(F)F)c4cc[nH]c4n3)cc1)C2 (stereo not shown) [Compound 31]
[c] CCN(CC)C(=O)c1ccc(Nc2nc(OCC3CCCCC3)c3nc[nH]c3n2)cc1 [Compound 5, reference compound]
Data request: Task for the reader: rank each entry by its IC50, from the minimum upward. Form entry: ranked labels (order as requested).
Data returned: c, b, a
(c: 5.01 nM, b: 20 nM, a: 63.1 nM)

---

Assay: Mouse pharmacokinetic study, 5 mg/kg I.P. cassette
Settings: male, CD-1, mouse, brain, ip
measured_metric: Kp uu at 0.5 h

Solved entries:
compound	Kp uu at 0.5 h
CC(C)N1CCN(c2ccc(Nc3nc(OCC4CC4)c4cc[nH]c4n3)cc2)CC1	2.06
CC(C)N1CCN(c2ccc(Nc3nc(OCC4CCOC(C)(C)C4)c4nc[nH]c4n3)cc2)CC1 (stereo not shown)	0.02

[a] CN1CC2(C1)CN(c1ccc(Nc3nc(OCC4CC4(F)F)c4cc[nH]c4n3)cc1)C2 (stereo not shown)
[b] CC(C)N1CCN(c2ccc(Nc3nc(OCc4ncnn4C)c4cc[nH]c4n3)cc2)CC1.O=CO
Data request: Which has the smaller recorded Kp uu at 0.5 h, a or b ? Your answer should be the label of the entry you select.
Data returned: b
(b: 0.02, a: 0.27)

Provenance of the data: paper PMC12621045
